assay target: T1, human ROR1 (full-length, on the cell surface) (human, UniProt Q01973 30-937)
T1 construct: whole, on cells; the tumour cell lines carry their own ROR1; also called Ba/F3-ROR1 cells; Jeko-1
T1 sequence (Q01973 30-937): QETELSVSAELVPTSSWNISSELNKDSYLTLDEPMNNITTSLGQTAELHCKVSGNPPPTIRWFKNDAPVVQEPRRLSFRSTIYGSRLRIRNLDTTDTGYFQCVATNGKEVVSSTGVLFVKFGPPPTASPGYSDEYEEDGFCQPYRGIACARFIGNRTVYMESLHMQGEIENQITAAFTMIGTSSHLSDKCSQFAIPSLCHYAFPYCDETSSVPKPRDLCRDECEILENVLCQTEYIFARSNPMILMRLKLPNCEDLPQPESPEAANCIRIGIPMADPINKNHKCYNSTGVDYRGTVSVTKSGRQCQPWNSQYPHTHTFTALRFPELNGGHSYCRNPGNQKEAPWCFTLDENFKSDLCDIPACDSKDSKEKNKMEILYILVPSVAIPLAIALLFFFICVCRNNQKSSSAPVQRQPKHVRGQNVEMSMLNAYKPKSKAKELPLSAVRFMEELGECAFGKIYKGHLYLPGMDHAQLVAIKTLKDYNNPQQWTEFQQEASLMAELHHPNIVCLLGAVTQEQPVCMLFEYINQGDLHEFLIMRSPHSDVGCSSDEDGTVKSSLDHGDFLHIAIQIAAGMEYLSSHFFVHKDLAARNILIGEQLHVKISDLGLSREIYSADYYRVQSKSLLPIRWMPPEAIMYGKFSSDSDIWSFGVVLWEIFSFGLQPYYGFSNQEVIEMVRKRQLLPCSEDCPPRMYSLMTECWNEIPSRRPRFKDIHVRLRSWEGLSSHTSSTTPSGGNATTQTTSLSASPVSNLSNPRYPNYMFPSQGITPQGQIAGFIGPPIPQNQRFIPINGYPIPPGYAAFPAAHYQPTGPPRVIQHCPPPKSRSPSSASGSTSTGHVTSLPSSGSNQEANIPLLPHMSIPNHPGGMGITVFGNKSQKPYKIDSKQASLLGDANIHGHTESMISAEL
experiment description: flow cytometry, Jeko-1 cells
value kind: pEC50
The meaning of pEC50 here: minus log10 of the concentration in molar units.

[[record]]
binder = "38F8-Hu34 (antibody, human IgG1, kappa, V domains shown, humanized, human IgG1 / kappa) VH: QVQLVESGGGLVKPGGSLRLSCAASGFTFSNYAMSWVRQAPGKGLEWVASISSGGPTYYADSVKGRFTISRDNAKNSLYLQMNSLRAEDTAVYYCARGYRYDVNWYFDVWGAGTMVTVSS VL: DIQMTQSPSSLSASVGDRVTITCQASQDISNYLTWFQQKPGKSPKTLIHRANRLVTGVPSRFSGSGSGTDFTFTISSLQPEDIATYYCLQYDEFPYTFGGGTKVEIKR"
value_kind = "pEC50"
test_value = 10.22


// next entry
Exercise: What value of pEC50 has been reported for the following binder? 3D8-Hu95 (antibody, human IgG1, kappa, V domains shown, humanized, human IgG1 / kappa) VH: EVQLVESGGGLVQPGGSLRLSCAASGFTFSSYAMSWVRQAPEKRLEWVSSISNGGSTYYPDSVKGRFTISRDNSKNTLYLQMNSLRAEDTAVYYCARVNYYGYGDYAMDYWGQGTLVTVSS VL: DIQMTQSPSSLSASVGDRVTITCQASQDINSYLSWFQQKPGKAPKTLIYRANRLVTGVPSRFSGSGSGTDFTFTISSLQPEDIATYYCLQYDEFPYTFGGGTKLEIKR
Key: 9.89

Measured values drawn from patent US20240018237A1 for this set.
